Test: protein stability index of a GFP-peptide fusion (GPS, HEK-293T) (PSI 1-6); higher = more stable;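 further: 24-mer peptide tiles fused after GFP, lentivirally expressed, FACS-sorted into six equal bins by GFP/DsRed ratio, decoded by Illumina sequencing, PSI is the read-weighted mean bin number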
Settings: treatment: MLN4924 1 uM, 8 h; c terminus: a fixed tail appended
quantity: protein stability index
Respond numerically, and do not add a unit to the figure.

Illustrative cases are given below, each with its answer.
sequence_content: ESRACLERIQELEDLLAKEKDNSR [LMNB1]
quantity: protein stability index
reading: 5.15
//
sequence_content: MYEMLIGYPPFCSETPQETYRKVM [STK38L]
quantity: protein stability index
reading: 2.1
//
sequence_content: KPGLRRSPIKKVRKSLALDIVDED [MYBL2]
quantity: protein stability index
reading: 4.92
//
sequence_content: CLSTWLLHFIATNYLIFSQKPEFQ [RHOBTB3]
quantity: protein stability index
reading: 3.22
//
sequence_content: ERSLVLDRLASNVAKRKSSMPQKF [IKZF1]
quantity: protein stability index
reading: 3.84

**Query** Output measured protein stability index for this item: ILGVIGLFTIPLLYRQHQAQIDQY [RTN2]
**Result** 3.1

**Query** Output measured protein stability index for this item: LEEELRQLKEEMARHLREYQELLN [PRPH]
**Result** 3.62

====

Assay: protein stability index of a GFP-peptide fusion (GPS, HEK-293T) (PSI 1-6); higher = more stable
Conditions: treatment: DMSO; c terminus: a fixed tail appended
quantity: protein stability index
Respond numerically, and do not add a unit to the figure.

Illustrative cases are given below, each with its answer.
sequence_content: DILEVKRLLDHQDNILSLINVNDL [WDR41]
reading: 2.24
//
sequence_content: RILQDEQYLMASDMAGKIKLWDLR [DCAF4]
reading: 2.75
//
sequence_content: KAVLENALRNFACLTTGDVIAINY [UFD1]
reading: 2.94
//
sequence_content: LMSAQTITSETTSTTTTTHITKTV [EPB41L3]
reading: 4.5
//
sequence_content: RGELSARQMHLARFLRMLLRLADE [RAD51]
reading: 2.2
//
sequence_content: ICDKHWTAKNSRVVCGMFGFPGER [LOXL2]
reading: 2.42
//
sequence_content: LTSMRRLSSIKRDTNSIAKAIKAR [STX11]
reading: 3.4
//
sequence_content: RITITESNMKSRYTTEFHELEKIG [WEE1]
reading: 3.03
//
sequence_content: FSHEILRDEESFFGERRIPRGRRI [ALKBH7]
reading: 3.34
//
sequence_content: KIFVENLRRQKSLRLEWETQQELR [IQUB]
reading: 2.69

**Query** Output measured protein stability index for this item: LRPPHTSRGTSQTPNASSPGNPTA [LPCAT4]
**Result** 4.76

**Query** Output measured protein stability index for this item: IMVGFILYCSTPTRTAEPAESSVP [SLC35F2]
**Result** 3.15

**Query** Output measured protein stability index for this item: SATLSWKQPPLSTVPADGYILELD [TRIM9]
**Result** 3.52

====

Assay: protein stability index of a GFP-peptide fusion (GPS, HEK-293T) (PSI 1-6); higher = more stable
Conditions: treatment: DMSO; c terminus: a fixed tail appended
quantity: protein stability index
Respond numerically, and do not add a unit to the figure.

sequence_content: VPVHSFASLNIKTTVPEVEPPQDS [PRPH]
protein stability index: 4.97
//
sequence_content: CTVLRDARIRSHSWLESCIVGWRC [GMPPB]
protein stability index: 2.42
//
sequence_content: SVGSYLDTLADDVPGHQTPSDLDQ [LURAP1L]
protein stability index: 5.28
//
sequence_content: MMHGGSYSLTTSSTHKRSSLRKVK [RAB40B]
protein stability index: 4.15
//
sequence_content: IFGDLCGNMANLSLHDHDGSSGAS [DVL3]
protein stability index: 3.9
//
sequence_content: GVSPADMYRWKLSSHEPCSATCTT [ADAMTSL2]
protein stability index: 2.98
//
sequence_content: HQAQLISKIPHILKEMYDADLLEE [EIF5]
protein stability index: 2.94
//
sequence_content: SYCPHCGEESSKAKEVTIAKADTT [EHMT1]
protein stability index: 4.27

**Query** Output measured protein stability index for this item: QCKDALEIYKRFLTRMTRVSEFLK [SNAP91]
**Result** 2.77

**Query** Output measured protein stability index for this item: NSSGDFSQAHSTLKLANHQRPVSR [TRAF3IP2]
**Result** 4.43

**Query** Output measured protein stability index for this item: FAVLHWKPPQNPVDTYDVQVTAPG [TNXB]
**Result** 2.76

**Query** Output measured protein stability index for this item: YENFLEDKALMIAMEYAPGGTLAE [NEK8]
**Result** 3.54

**Query** Output measured protein stability index for this item: QLLEQKQAYWAQAEDTAAPAEESK [CBY2]
**Result** 5.01
